# study.target: Dual specificity tyrosine-phosphorylation-regulated kinase 2 (Homo sapiens)
# Sequence (Q92630 whole entry): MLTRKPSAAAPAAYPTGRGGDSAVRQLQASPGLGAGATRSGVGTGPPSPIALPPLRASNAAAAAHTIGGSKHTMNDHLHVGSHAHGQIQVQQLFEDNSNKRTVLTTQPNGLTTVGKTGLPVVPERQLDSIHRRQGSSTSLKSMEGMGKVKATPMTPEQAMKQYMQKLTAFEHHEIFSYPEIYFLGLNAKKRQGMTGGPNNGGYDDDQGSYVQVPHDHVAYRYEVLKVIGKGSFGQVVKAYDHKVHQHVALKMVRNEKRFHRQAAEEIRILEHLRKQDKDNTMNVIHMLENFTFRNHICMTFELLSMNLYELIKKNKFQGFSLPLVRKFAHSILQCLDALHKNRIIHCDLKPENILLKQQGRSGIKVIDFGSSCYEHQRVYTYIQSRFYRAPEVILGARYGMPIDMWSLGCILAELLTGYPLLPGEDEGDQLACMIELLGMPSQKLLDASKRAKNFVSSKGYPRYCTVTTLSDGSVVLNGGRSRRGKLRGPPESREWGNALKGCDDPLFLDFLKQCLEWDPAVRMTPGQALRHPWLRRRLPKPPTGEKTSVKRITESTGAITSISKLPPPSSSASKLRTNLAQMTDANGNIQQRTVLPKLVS
# test.method.notes: Inhibition of DYRK2 (unknown origin) using woodtide as substrate after 40 mins in presence of [gamma-33P]ATP by microbeta scintillation counting
Overview of recorded IC50 for various molecules
measure.name: IC50

>  <structure.as.smiles>
O=C(Nc1cccc(O)c1)c1c[nH]c2ncc(-c3ccc(O)cc3)cc12

>  <data.value>
> 1 µM

$$$$
>  <structure.as.smiles>
Oc1ccc(-c2cnc3[nH]cc(-c4ccc(O)cc4)c3c2)cc1

>  <data.value>
0.166 µM

$$$$
>  <structure.as.smiles>
O=[N+]([O-])c1ccc(-c2cnc3[nH]cc(-c4ccc(O)cc4)c3c2)cc1

>  <data.value>
> 1 µM

$$$$
>  <structure.as.smiles>
O=C(Nc1ccc(O)cc1)c1c[nH]c2ncc(-c3ccc(O)cc3)cc12

>  <data.value>
> 1 µM

$$$$
>  <structure.as.smiles>
O=C(Nc1ccc(O)cc1)c1cnc2[nH]cc(-c3ccc(O)cc3)c2c1

>  <data.value>
> 1 µM

$$$$
>  <structure.as.smiles>
Oc1ccc(-c2c[nH]c3ncc(-c4ccc5[nH]ccc5c4)cc23)cc1

>  <data.value>
0.644 µM

$$$$
>  <structure.as.smiles>
Oc1ccc(-c2ccc3[nH]cc(-c4ccc(O)cc4)c3c2)cc1

>  <data.value>
> 1 µM

$$$$

====

# test.method.notes: Cytotoxicity against patient-derived SJH1 cells assessed as reduction in cell viability after 3 days by Alamar blue assay
# Assay type: functional, cell-based
# measurement.setup: Homo sapiens, SJH1, 72 h

>  <structure.as.smiles>
Oc1ccc(-c2cnc3[nH]cc(-c4ccc5[nH]ccc5c4)c3c2)cc1

>  <value.relation.sign>
=

>  <EC50 [µM]>
2.2

$$$$
>  <structure.as.smiles>
O=C(Nc1cccc(O)c1)c1c[nH]c2ncc(-c3ccc(O)cc3)cc12

>  <value.relation.sign>
>

>  <EC50 [µM]>
50

$$$$
>  <structure.as.smiles>
O=C(Nc1ccc(O)cc1)c1c[nH]c2ncc(-c3ccc(O)cc3)cc12

>  <value.relation.sign>
>

>  <EC50 [µM]>
50

$$$$
>  <structure.as.smiles>
Oc1ccc(-c2ccc3[nH]nc(-c4ccc(O)cc4)c3c2)cc1

>  <value.relation.sign>
>

>  <EC50 [µM]>
50

$$$$
>  <structure.as.smiles>
Oc1ccc(-c2cnc3[nH]cc(-c4ccc(O)cc4)c3c2)cc1

>  <value.relation.sign>
=

>  <EC50 [µM]>
4.1

$$$$
>  <structure.as.smiles>
O=C(Nc1ccc(O)cc1)c1cnc2[nH]cc(-c3ccc(O)cc3)c2c1

>  <value.relation.sign>
=

>  <EC50 [µM]>
5.2

$$$$
>  <structure.as.smiles>
Nc1ccc(-c2cnc3[nH]cc(-c4ccc(O)cc4)c3c2)cc1

>  <value.relation.sign>
=

>  <EC50 [µM]>
3.2

$$$$
>  <structure.as.smiles>
Oc1ccc(-c2ccc3[nH]cc(-c4ccc(O)cc4)c3c2)cc1

>  <value.relation.sign>
>

>  <EC50 [µM]>
50

$$$$
>  <structure.as.smiles>
O=[N+]([O-])c1ccc(-c2cnc3[nH]cc(-c4ccc(O)cc4)c3c2)cc1

>  <value.relation.sign>
>

>  <EC50 [µM]>
50

$$$$
>  <structure.as.smiles>
CS(=O)(=O)Nc1ccc(-c2cnc3[nH]cc(-c4ccc(O)cc4)c3c2)cc1

>  <value.relation.sign>
=

>  <EC50 [µM]>
42

$$$$
>  <structure.as.smiles>
NC(=O)Nc1ccc(-c2cnc3[nH]cc(-c4ccc(O)cc4)c3c2)cc1

>  <value.relation.sign>
=

>  <EC50 [µM]>
28

$$$$
>  <structure.as.smiles>
Oc1ccc(-c2c[nH]c3ncc(-c4ccc5[nH]ccc5c4)cc23)cc1

>  <value.relation.sign>
=

>  <EC50 [µM]>
30

$$$$
>  <structure.as.smiles>
CC(=O)Nc1ccc(-c2cnc3[nH]cc(-c4ccc(O)cc4)c3c2)cc1

>  <value.relation.sign>
=

>  <EC50 [µM]>
5.1

$$$$
>  <structure.as.smiles>
Nc1ccc(-c2c[nH]c3ncc(-c4ccc(O)cc4)cc23)cc1

>  <value.relation.sign>
>

>  <EC50 [µM]>
50

$$$$
>  <structure.as.smiles>
Oc1ccc(-c2c[nH]c3ncc(-c4ccc(-c5nnn[nH]5)cc4)cc23)cc1

>  <value.relation.sign>
>

>  <EC50 [µM]>
50

$$$$
>  <structure.as.smiles>
O=C(Nc1cccc(O)c1)c1cnc2[nH]cc(-c3ccc(O)cc3)c2c1

>  <value.relation.sign>
=

>  <EC50 [µM]>
5.7

$$$$
>  <structure.as.smiles>
Oc1ccc(-c2cnc3[nH]cc(-c4ccc(-c5nnn[nH]5)cc4)c3c2)cc1

>  <value.relation.sign>
>

>  <EC50 [µM]>
50

$$$$

// provenance: ChEMBL document CHEMBL4007420
